test system: A498; experiment: NCI tumour cell line growth inhibition, 48 h
Active and inactive are the calls of the source. Cut-off read from the data, not from the text of the source: active = GI50 up to about 1.1 µM and inactive = higher.
VALUE_TYPE: GI50

Solved entries (count: 3):
COMPOUND: CCOP(=O)(C/C(O)=C1\C(=O)C(CCCCNC(=O)OC(C)(C)C)N(Cc2ccccc2)C1=O)OCC (centres undefined)
GI50: > 100 µM (inactive)

COMPOUND: CC(=O)C1C(=O)C(C(C)=O)C2C3C=CC(C3)C12 (centres undefined)
GI50: > 100 µM (inactive)

COMPOUND: NNC(=O)C(=O)N/N=C(\CCCC(=O)Nc1ccc(Cl)cc1)CC(=O)c1ccc(F)cc1
GI50: 2.66 µM (inactive)

Lab note: next compound to report on.
Data request: // fetch A498 GI50 for `C=C1C(=O)O[C@H]2[C@H](OC(C)=O)[C@@H](C)CCC/C(C)=C/CC[C@@]3(C)O[C@@H]3C[C@@H]12`
Data returned: 3.56 µM (inactive)

====

tested on: Malme-3M; assay: NCI tumour cell line growth inhibition, 48 h
Counter-ions that a name gives are not always drawn. Calls of active or inactive are those of the source. No stated cut-off is given here; in the data, active = GI50 up to about 1.1 µM and inactive = higher.
VALUE_TYPE: GI50

MOLECULE: CCN(CC)CCn1c(C(C)(C)C)nc2ccccc21
GI50: > 100 µM (inactive)
--
MOLECULE: CCOC(=O)C1C(=O)CC(=O)C2CCCCC21 (stereo not given)
GI50: > 100 µM (inactive)
--
MOLECULE: CC(=O)N(C)c1ccc(Nc2cc(C)nc3ccc4nc[nH]c4c23)cc1 [ACODAZOLE HYDROCHLORIDE]
GI50: 7.64 µM (inactive)
--
MOLECULE: Cc1cc(Br)cc(C)c1NC(=O)C(=O)C(C(=O)c1ccc(Cl)c(Cl)c1)C1OC(=O)c2ccccc21 (stereo not given)
GI50: > 100 µM (inactive)

Shift focus to the following entry.
Data request: Look at this molecule and give its reported GI50. `O=C1C(Cl)=C(Cl)C(=O)N1c1ccccc1Cl`
Data returned: > 52.5 µM (inactive)

====

system: BT-549; test: NCI tumour cell line growth inhibition, 48 h
Calls of active or inactive are those of the source. Cut-off read from the data, not from the text of the source: active = GI50 up to about 1.1 µM and inactive = higher.
Your answer must be one of the following: active, inactive

// known answers, use as guide
COMPOUND: COc1cccc(NC(=O)CC(=O)Nc2cccc(OC)c2)c1
ASSIGNED_CATEGORY: inactive
//
COMPOUND: [N-]=[N+]=Nc1ccccc1C(=O)N1C(=O)c2ccccc2C(=O)N(C(=O)c2ccccc2N=[N+]=[N-])c2ccccc21
ASSIGNED_CATEGORY: inactive
//
COMPOUND: COc1ccc(/N=N/C(=O)NC(CC(C)C)C(=O)NCC(=O)O)cc1 (centres undefined)
ASSIGNED_CATEGORY: inactive
//
COMPOUND: O=C1C(Br)=CC2(C=C1Br)CCNC1=C2C2=NCCc3c[nH]c(c32)C1=O
ASSIGNED_CATEGORY: active
//
COMPOUND: Cc1n(CC(C)C)c2c([n+]1C)C(=O)c1ccccc1C2=O
ASSIGNED_CATEGORY: active
//
COMPOUND: c1cc2sc1CSCCSCCSC2
ASSIGNED_CATEGORY: inactive
//
COMPOUND: CCOC(=O)CSc1nc(-c2ccc(OC)cc2)c(C#N)c(=O)[nH]1
ASSIGNED_CATEGORY: inactive
//
COMPOUND: CC(=O)O[C@H]1C(=O)[C@@]2(C)C(C(OC(=O)c3ccccc3)[C@]3(O)CC(OC(=O)C(O)C(NC(=O)c4cccc(Cl)c4)c4ccccc4)C(C)=C1C3(C)C)[C@]1(OC(C)=O)CO[C@@H]1C[C@@H]2O (some centres undefined)
ASSIGNED_CATEGORY: inactive

Continue with the compound presented below.
Data request: Please indicate how the test categorized O=C1c2c(O)cccc2C(C2OC(CO)C(O)C(O)C2O)c2cc(CO)cc(O)c21 (centres undefined) .
Data returned: inactive
